- System: NK-YS (IL-2 2.5 ng/mL);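 note: normalised to DMSO-only wells as negative and benzethonium chloride as positive control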
- PROTOCOL_NOTES: percent inhibition of viability; higher = more inhibition
- MEASUREMENT_CONTEXT: 72 h; 1000 nM
For each record, write down the corresponding percent inhibition of viability.
# output: bare number, implied unit %

Entry under review: COc1cccc2c1C(=O)c1c(O)c3c(c(O)c1C2=O)C[C@@](O)(C(C)=O)C[C@@H]3O[C@H]1C[C@H](N)[C@H](O)[C@H](C)O1 [Daunorubicin] (max concentration tested 1000 nM) . Reported percent inhibition of viability?
106

Entry under review: Cn1cnc2c(F)c(Nc3ccc(Br)cc3Cl)c(C(=O)NOCCO)cc21 [Selumetinib] (max concentration tested 10000 nM) . Reported percent inhibition of viability?
1.88

Entry under review: C=CC(=O)Nc1cc2c(Nc3ccc(F)c(Cl)c3)ncnc2cc1OCCCN1CCOCC1 [Canertinib] (max concentration tested 10000 nM) . Reported percent inhibition of viability?
14.6
